These measurements were taken from paper PMC11272598.

# PROCEDURE_SUMMARY: Microsomal clearance
# Assay type: in vitro ADME
# EXPERIMENTAL_SETUP: rat, rat microsomes, pH 7.4
ASSAY_ENDPOINT: microsomal CLint at 1 µM (µL/min/mg)
Write the answer as a number in µL/min/mg, unit excluded.

Query string: Quote microsomal CLint at 1 µM reported for Cn1nnnc1Cn1nnc2c(N3CC[C@H](O)C3)nc(C(C)(C)C)nc21 please.
Result string: 25

---

# PROCEDURE_SUMMARY: Plasma protein binding
# Assay type: in vitro ADME
# EXPERIMENTAL_SETUP: pooled plasma, pH 7.4, rat, read-out: PPB (fu)
ASSAY_ENDPOINT: fraction unbound at 5 h, 1000 nM
Keep the answer to the number alone.

Query string: Please report fraction unbound at 5 h, 1000 nM for the following compound: Cn1nnnc1Cn1nnc2c(N3CC[C@H](O)C3)nc(C(C)(C)C)nc21 [RG7774]
Result string: 0.158

---

# PROCEDURE_SUMMARY: Plasma PK profile in rats
# Type: in vivo, Wistar rats
# EXPERIMENTAL_SETUP: female, Wistar, rat, plasma, PO 30 mg/kg, mean (% CV)
ASSAY_ENDPOINT: bioavailability (%)
A number alone suffices; assume %.

Query string: Supply measured bioavailability of Cn1nnnc1Cn1nnc2c(N3CC[C@H](O)C3)nc(C(C)(C)C)nc21 in your reply.
Result string: 81.4

---

# SYSTEM_UNDER_TEST: human CB2R (Homo sapiens, UniProt P34972)
# Construct: bgal (beta-galactosidase fragment of the PathHunter system); host or cells: CHO-K1
# Sequence (P34972 whole entry, the tested form may be a part): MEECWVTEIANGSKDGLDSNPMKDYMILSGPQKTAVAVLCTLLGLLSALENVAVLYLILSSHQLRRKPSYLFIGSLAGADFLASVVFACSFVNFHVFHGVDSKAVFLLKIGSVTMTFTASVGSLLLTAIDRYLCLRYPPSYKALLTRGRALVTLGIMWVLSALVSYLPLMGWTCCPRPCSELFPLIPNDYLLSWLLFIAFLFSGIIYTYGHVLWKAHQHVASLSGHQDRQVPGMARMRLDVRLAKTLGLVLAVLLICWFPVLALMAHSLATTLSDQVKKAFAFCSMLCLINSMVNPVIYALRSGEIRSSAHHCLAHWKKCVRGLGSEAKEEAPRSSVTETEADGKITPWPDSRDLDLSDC
# PROCEDURE_SUMMARY: PathHunter β-arrestin recruitment assay in CHO cells
# Type: cell-based
ASSAY_ENDPOINT: EC50 (nM)
State the answer as a number, implicitly in nM.

Query string: Identify measured EC50 associated with Cn1nnnc1Cn1nnc2c(N3CC[C@H](O)C3)nc(C(C)(C)C)nc21
Result string: 99.7

---

# PROCEDURE_SUMMARY: Plasma PK profile in rats
# Assay type: in vivo, Wistar rats
# EXPERIMENTAL_SETUP: female, Wistar, rat, plasma, PO 30 mg/kg, mean (% CV)
ASSAY_ENDPOINT: half-life (h)
Quick reminder: number only, in h, skip the unit.

Query string: Identify measured half-life associated with Cn1nnnc1Cn1nnc2c(N3CC[C@H](O)C3)nc(C(C)(C)C)nc21
Result string: 3.18

---

# PROCEDURE_SUMMARY: pKa
# Format: physicochemical
# EXPERIMENTAL_SETUP: basic
ASSAY_ENDPOINT: pKa

Query string: Identify the reported pKa for the following entry. Cn1nnnc1Cn1nnc2c(N3CC[C@H](O)C3)nc(C(C)(C)C)nc21
Result string: 2.63

---

# PROCEDURE_SUMMARY: Plasma PK profile in mice
# Type: in vivo, C57BL/6J mice
# EXPERIMENTAL_SETUP: male, C57BL/6J, mouse, plasma, PO 3 mg/kg
ASSAY_ENDPOINT: bioavailability (%)
Give your result in % as a bare value.

Query string: Assign bioavailability to the following record: Cn1nnnc1Cn1nnc2c(N3CC[C@H](O)C3)nc(C(C)(C)C)nc21
Result string: 42.2

---

# PROCEDURE_SUMMARY: Plasma PK profile in mice
# Format: in vivo, C57BL/6J mice
# EXPERIMENTAL_SETUP: male, C57BL/6J, mouse, plasma, IV 1 mg/kg
ASSAY_ENDPOINT: half-life (min)
The response must be a number in min with no trailing unit.

Query string: Note half-life for the compound shown: Cn1nnnc1Cn1nnc2c(N3CC[C@H](O)C3)nc(C(C)(C)C)nc21
Result string: 542
